Test system: arteriovenous bypass thrombosis in rats
Assay: Effect on arteriovenous bypass thrombosis in rats
Assay type: in vivo, SD rats
Settings: 10 mg/kg/day tail vein 7 days, 2 h after last dose
Experimental: Male SD rats, weighing 250-280 g, purchased from Beijing Vital River Laboratory Animal Technology Co., Ltd., raised in an SPF breeding environment with indoor temperature controlled at 23±2° C., and allowed to freely eat and drink. The total number of the animals is 64. […] The rats were intraperitoneally injected with a 3% pentobarbital sodium solution (30 mg/kg). […] Then, after the suture was dried at room temperature for 24 h, the dry weight was determined. […]
Dry weight of thrombus listing for selected compounds.
endpoint name: Dry weight of thrombus

CCCC[C@H](OC(C)=O)c1ccccc1C(=O)O :: 5.52
CCCCC(O)c1ccccc1C(=O)[O-].[K+] (racemic) :: 8.90
CC(=O)Oc1ccccc1C(=O)O :: 6.06
CC1=NN(c2ccccc2)C(=O)C1 :: 8.23
CCCC[C@@H](OC(C)=O)c1ccccc1C(=O)O :: 8.51
CCCC[C@@H]1OC(=O)c2ccccc21 [(S)-NBP, (S)-butylphthalide] :: 7.44
CCCCC(OC(C)=O)c1ccccc1C(=O)O.N=C(N)NCCC[C@H](N)C(=O)O (racemic) :: 7.64

Where these numbers come from: patent US11814352B2
